Cited source: PubChem BioAssay (EPA / NIEHS)

target: human RAR-related Orphan Receptor gamma (RORg), RORC (gene 6097) (UniProt P51449); test: ATG_RORg_TRANS: Attagene TRANS-FACTORIAL HepG2 Assay for human RAR-related Orphan Receptor gamma (RORg) (AID 2283011)
Sequence (P51449 whole entry, looked up): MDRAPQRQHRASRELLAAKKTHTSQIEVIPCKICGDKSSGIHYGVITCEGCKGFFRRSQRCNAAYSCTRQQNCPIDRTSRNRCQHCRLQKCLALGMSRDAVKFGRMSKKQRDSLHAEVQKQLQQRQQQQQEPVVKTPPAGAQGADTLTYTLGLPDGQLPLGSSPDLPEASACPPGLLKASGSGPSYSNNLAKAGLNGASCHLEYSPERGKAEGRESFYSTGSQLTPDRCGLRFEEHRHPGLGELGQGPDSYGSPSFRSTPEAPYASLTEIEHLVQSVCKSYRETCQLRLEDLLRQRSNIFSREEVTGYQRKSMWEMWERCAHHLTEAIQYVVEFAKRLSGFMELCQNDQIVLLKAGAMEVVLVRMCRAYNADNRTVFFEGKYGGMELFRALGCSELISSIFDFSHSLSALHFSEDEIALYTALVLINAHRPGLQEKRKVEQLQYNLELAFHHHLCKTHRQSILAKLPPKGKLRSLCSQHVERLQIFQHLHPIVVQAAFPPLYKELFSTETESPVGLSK
Inconclusive results are not listed. Calls of active or inactive are those of the source. How the source made its calls: active means hit-call score of the fitted dose curve at least 0.9, where 1 is the maximum; inconclusive means response in the unintended direction; inactive means score below 0.9.
Labels: 1 = active, -1 = inactive

# compound, system name, group
data = [
    ("CC(O)CC(C)(C)O (centres undefined)", "human RAR-related Orphan Receptor gamma (RORg), RORC (gene 6097) (UniProt P51449)", -1),
    ("CCCCCCCCCCCCO", "human RAR-related Orphan Receptor gamma (RORg), RORC (gene 6097) (UniProt P51449)", -1),
    ("O=C(O)Cc1cc(I)c(Oc2ccc(O)c(I)c2)c(I)c1", "human RAR-related Orphan Receptor gamma (RORg), RORC (gene 6097) (UniProt P51449)", -1),
    ("O=C(O)Cn1c(=O)n(Cc2ccc(Br)cc2F)c(=O)c2ccc(Cl)cc21", "human RAR-related Orphan Receptor gamma (RORg), RORC (gene 6097) (UniProt P51449)", -1),
    ("CCCCCCCCCCCO", "human RAR-related Orphan Receptor gamma (RORg), RORC (gene 6097) (UniProt P51449)", 1),
    ("Cc1cccc2ccccc12", "human RAR-related Orphan Receptor gamma (RORg), RORC (gene 6097) (UniProt P51449)", -1),
    ("O=C1c2ccccc2C(=O)N1CCc1noc(-c2ccc(CN3CCCCCC3)s2)n1", "human RAR-related Orphan Receptor gamma (RORg), RORC (gene 6097) (UniProt P51449)", -1),
    ("O=C1O[C@H]([C@@H](O)CO)C(O)=C1O", "human RAR-related Orphan Receptor gamma (RORg), RORC (gene 6097) (UniProt P51449)", -1),
    ("COc1cc(C(=O)NC2CCN(C)CC2)ccc1Nc1ncc2c(n1)N(C1CCCC1)CC(F)(F)C(=O)N2C", "human RAR-related Orphan Receptor gamma (RORg), RORC (gene 6097) (UniProt P51449)", -1),
    ("CCO[Si](CCCNC(N)=O)(OCC)OCC", "human RAR-related Orphan Receptor gamma (RORg), RORC (gene 6097) (UniProt P51449)", -1),
    ("Cc1ncc(CO)c(CO)c1O", "human RAR-related Orphan Receptor gamma (RORg), RORC (gene 6097) (UniProt P51449)", -1),
    ("Cc1ccc(C(C)C)cc1", "human RAR-related Orphan Receptor gamma (RORg), RORC (gene 6097) (UniProt P51449)", -1),
    ("OC12N=C(c3ccccc3)SC1Cc1cc(Cl)ccc12 (centres undefined)", "human RAR-related Orphan Receptor gamma (RORg), RORC (gene 6097) (UniProt P51449)", -1),
    ("O=C(O)c1ccccc1C(=O)OCc1ccccc1", "human RAR-related Orphan Receptor gamma (RORg), RORC (gene 6097) (UniProt P51449)", -1),
]

----------
read-out: Vascular endothelial growth factor receptor 2 (Homo sapiens) (UniProt P35968); test: BSK_4H_VEGFRII: BioMAP Diversity Plus: 4H Assay for Vascular endothelial growth factor receptor 2 (VEGFR2) Biomarker Activity (AID 2283031); details: primary human endothelial cells (HUVEC); actives raise or lower the signal
Active and inactive are the calls of the source. Rule for the calls: active = hit-call score of the fitted dose curve at least 0.9, where 1 is the maximum; inactive = score below 0.9.
Labels: yes (1) for active, no (0) for inactive

# molecule, group
measured = [
    ("c1ccc2n[nH]nc2c1", "no (0)"),
    ("COc1cccc([C@H](O)C2CCN(CCc3ccc(F)cc3)CC2)c1OC", "no (0)"),
    ("CCN(Cc1cccc(S(=O)(=O)O)c1)c1ccc(C(=C2C=CC(=[N+](CC)Cc3cccc(S(=O)(=O)O)c3)C=C2)c2ccccc2S(=O)(=O)[O-])cc1", "no (0)"),
    ("CCCCCCCCCCCO", "no (0)"),
    ("Cc1ccc(C(C)C)cc1", "no (0)"),
    ("O=C(O)Cn1c(=O)n(Cc2ccc(Br)cc2F)c(=O)c2ccc(Cl)cc21", "no (0)"),
    ("CCCCCCCCOc1ccc(C(=O)c2ccccc2)c(O)c1", "no (0)"),
    ("Cc1cn([C@H]2C[C@H](N=[N+]=[N-])[C@@H](CO)O2)c(=O)[nH]c1=O", "no (0)"),
    ("OC12N=C(c3ccccc3)SC1Cc1cc(Cl)ccc12 (stereo not given)", "no (0)"),
    ("CCCCCCCCCCCCO", "yes (1)"),
    ("c1ccc(C[n+]2cccc3ccccc32)cc1", "no (0)"),
    ("CC/C(=C(/CC)c1ccc(O)cc1)c1ccc(O)cc1", "no (0)"),
    ("CC[C@H](NC(=O)c1cc(F)ccc1NS(=O)(=O)c1cccc2cccnc12)c1ccccc1", "no (0)"),
    ("CC(=O)N1CCN(c2ccc(OC[C@H]3CO[C@](Cn4ccnc4)(c4ccc(Cl)cc4Cl)O3)cc2)CC1", "no (0)"),
    ("CC(O)CC(C)(C)O (stereo not given)", "no (0)"),
    ("CN(C)C(=O)C1(N2CCCCC2)CCN(CC[C@@]2(c3ccc(Cl)c(Cl)c3)CN(C(=O)c3ccccc3)CCO2)CC1", "no (0)"),
    ("O=C1O[C@H]([C@@H](O)CO)C(O)=C1O", "no (0)"),
    ("CC1=CC(=O)/C(=C(/C)O)C(=O)O1", "no (0)"),
    ("Oc1ccccc1", "no (0)"),
    ("COc1ccc2cc(S(=O)(=O)N[C@H](CC(=O)N[C@H](Cc3ccc(CN4[C@H](C)CCC[C@@H]4C)cc3)C(=O)N(C)C(C)C)c3ccc4c(c3)OCO4)ccc2c1", "no (0)"),
]

----------
read-out: ABC Transporter (ABCB1), ABCB1 (gene 5243); test: LTEA_HepaRG_ABCB1: Life Technologies and Expression Analysis (LTEA) Assay for ABC Transporter (ABCB1) using HepaRG (AID 2283460); settings: mRNA level, 48 h; actives raise or lower the signal
Calls of active or inactive are those of the source. The calls were made as follows: active = hit-call score of the fitted dose curve at least 0.9, where 1 is the maximum; inactive = score below 0.9.
Labels: label 1 = active, label 0 = inactive

# compound structure string, group
measured = [
    ("Cc1ccc(C(C)C)cc1", "label 0"),
    ("c1ccc(C[n+]2cccc3ccccc32)cc1", "label 0"),
    ("NCc1cccc(C2CCN(C(=O)c3ccc(C#Cc4ccccc4F)o3)CC2)c1", "label 1"),
    ("Clc1ccccc1C(c1ccccc1)(c1ccccc1)n1ccnc1", "label 1"),
    ("O=C1O[C@H]([C@@H](O)CO)C(O)=C1O", "label 0"),
    ("COc1ccc2cc(S(=O)(=O)N[C@H](CC(=O)N[C@H](Cc3ccc(CN4[C@H](C)CCC[C@@H]4C)cc3)C(=O)N(C)C(C)C)c3ccc4c(c3)OCO4)ccc2c1", "label 1"),
    ("CCCCCCCCCCCC[N+](C)(C)C", "label 0"),
    ("CCCCCc1ccc(N)cc1", "label 0"),
    ("Cc1ncc(CO)c(CO)c1O", "label 0"),
    ("O=c1[nH]sc2ccccc12", "label 0"),
    ("O=C1c2ccccc2C(=O)N1CCc1noc(-c2ccc(CN3CCCCCC3)s2)n1", "label 0"),
    ("O=C(O)Cn1c(=O)n(Cc2ccc(Br)cc2F)c(=O)c2ccc(Cl)cc21", "label 1"),
    ("Cc1cc2c(cc1C(F)(F)F)N(C(=O)Nc1ccc(Oc3cccnc3C)nc1)CC2", "label 0"),
    ("CCCCCCCCOC(=O)c1cc(O)c(O)c(O)c1", "label 0"),
    ("Cc1cccc2ccccc12", "label 0"),
    ("c1ccc2n[nH]nc2c1", "label 0"),
    ("CCCOC(=O)c1cc(O)c(O)c(O)c1", "label 1"),
    ("c1ccc2ccccc2c1", "label 0"),
    ("O=C=NCCCCCCN=C=O", "label 0"),
]

----------
test: BSK_3C_uPAR: BioMAP Diversity Plus: 3C Assay for Urokinase-type plasminogen activator receptor (uPAR) Biomarker Activity (AID 2282998); details: BioMAP 3C HUVEC, uPAR biomarker ELISA; actives raise or lower the signal
The source made the active and inactive calls. Rule for the calls: active = hit-call score of the fitted dose curve at least 0.9, where 1 is the maximum; inactive = score below 0.9.
Labels: active, inactive

# compound structure string, group
records = [
    ("COc1ccc2cc(S(=O)(=O)N[C@H](CC(=O)N[C@H](Cc3ccc(CN4[C@H](C)CCC[C@@H]4C)cc3)C(=O)N(C)C(C)C)c3ccc4c(c3)OCO4)ccc2c1", "active"),
    ("Cc1c2ccccc2c(C)c2c1ccc1ccccc12", "active"),
    ("CCCC(=O)OCCC(C)C", "inactive"),
    ("CCN(Cc1cccnc1)C(=O)c1cccc(Cl)c1[C@]1(C)C(=O)N(Cc2ccc(OC)cc2OC)c2ccc(Cl)cc21", "active"),
    ("CCCCCCCCCCCC[N+](C)(C)C", "active"),
    ("O=C(O)Cc1cc(I)c(Oc2ccc(O)c(I)c2)c(I)c1", "inactive"),
    ("CC(=O)N1CCN(c2ccc(OC[C@H]3CO[C@](Cn4ccnc4)(c4ccc(Cl)cc4Cl)O3)cc2)CC1", "active"),
    ("CO[C@H]1/C=C/O[C@@]2(C)Oc3c(C)c(O)c4c(O)c(c(/C=N/N5CCN(C)CC5)c(O)c4c3C2=O)NC(=O)/C(C)=C\\C=C\\[C@H](C)[C@H](O)[C@@H](C)[C@@H](O)[C@@H](C)[C@H](OC(C)=O)[C@@H]1C", "inactive"),
]
